target: DHODH enzyme (Homo sapiens, UniProt Q02127)
Sequence (Q02127 whole entry): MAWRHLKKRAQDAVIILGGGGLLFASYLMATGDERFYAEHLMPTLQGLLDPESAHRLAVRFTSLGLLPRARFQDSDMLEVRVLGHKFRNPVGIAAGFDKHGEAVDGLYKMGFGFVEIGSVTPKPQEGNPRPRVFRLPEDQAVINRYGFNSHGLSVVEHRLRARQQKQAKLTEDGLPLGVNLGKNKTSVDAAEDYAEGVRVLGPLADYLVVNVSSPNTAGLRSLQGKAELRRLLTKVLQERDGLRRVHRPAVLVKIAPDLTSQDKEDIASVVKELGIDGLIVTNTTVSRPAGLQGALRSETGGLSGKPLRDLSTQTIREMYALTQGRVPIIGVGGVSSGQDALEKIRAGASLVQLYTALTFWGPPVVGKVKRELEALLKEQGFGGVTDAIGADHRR
Entries and their log10 IC50 values follow.
Log scale reminder: IC50 in nM, then log10 taken.

# example entries with known answers
- chemical_string: "CCn1c(CO)nn(-c2cc(O[C@@H](C)C(F)(F)F)c(/C(F)=C/c3cnccc3Cl)cc2F)c1=O"
  target_desc: "DHODH enzyme (Homo sapiens, UniProt Q02127)"
  measured_metric: "log10 IC50"
  readout_value: 0.38
- chemical_string: "CCn1c(CO)nn(-c2cc(O[C@@H](C)C(F)(F)F)c(/C(F)=C/c3cccnc3OC)cc2F)c1=O"
  target_desc: "DHODH enzyme (Homo sapiens, UniProt Q02127)"
  measured_metric: "log10 IC50"
  readout_value: 1.09
- chemical_string: "CCn1c(CO)nn(-c2cc(O[C@@H](C)C(F)(F)F)c(/C(F)=C/c3cccnc3C(F)F)cc2F)c1=O"
  target_desc: "DHODH enzyme (Homo sapiens, UniProt Q02127)"
  measured_metric: "log10 IC50"
  readout_value: 0.11
- chemical_string: "CCn1c(C(=O)O)nn(-c2cc(O[C@@H](C)C(F)(F)F)c(/C(F)=C/c3ncccc3Cl)cc2F)c1=O"
  target_desc: "DHODH enzyme (Homo sapiens, UniProt Q02127)"
  measured_metric: "log10 IC50"
  readout_value: 0.90
- chemical_string: "CCn1c(C(=O)O)nn(-c2cc(O[C@@H](C)C(F)(F)F)c(/C(F)=C/c3c(F)cncc3Cl)cc2F)c1=O"
  target_desc: "DHODH enzyme (Homo sapiens, UniProt Q02127)"
  measured_metric: "log10 IC50"
  readout_value: 0.95

Would you kindly share the measured log10 IC50 for CCn1c(CO)nn(-c2cc(O[C@@H](C)C(F)(F)F)c(/C(F)=C/c3c(F)cccc3Cl)cc2F)c1=O ?
-0.15

One more compound: CCn1c(CO)nn(-c2cc(O[C@@H](C)C(F)(F)F)c(/C=C/c3c(F)cccc3Cl)cc2F)c1=O
0.41

* * *

Entries and their AUC(0-t) values follow.
assay: Pharmacokinetic evaluation in mice (IV and PO); type: in vivo, female Balb/c mice; conditions: female, Balb/c, mouse, plasma; PO 1 mg/kg
Please respond with the number in µM·h and leave the unit unwritten.

- compound: "CCn1c(CO)nn(-c2cc(O[C@@H](C)C(F)(F)F)c(/C(F)=C/c3ncccc3Cl)cc2F)c1=O [Compound 5]"
  AUC(0-t) [µM·h]: 6.87
- compound: "CCn1c(CO)nn(-c2cc(O[C@@H](C)C(F)(F)F)c(/C(F)=C/c3cccnc3Cl)cc2F)c1=O [Compound 26]"
  AUC(0-t) [µM·h]: 9.2

Would you kindly share the measured AUC(0-t) for CCn1c(CO)nn(-c2cc(O[C@@H](C)C(F)(F)F)c(/C(F)=C/c3cccnc3OC)cc2F)c1=O [Compound 6] ?
7.79

One more compound: CCn1c(CO)nn(-c2cc(O[C@@H](C)C(F)(F)F)c(/C(F)=C/c3cccnc3C(F)F)cc2F)c1=O [Compound 39]
8.95

* * *

test: Pharmacokinetic evaluation in mice (IV and PO); assay type: in vivo, female Balb/c mice; conditions: female, Balb/c, mouse, plasma; IV 0.2 mg/kg; read-out: VdSS
measured_metric: Vd (L/kg)
Please respond with the number in L/kg and leave the unit unwritten.

- chemical_string: "CCn1c(CO)nn(-c2cc(O[C@@H](C)C(F)(F)F)c(/C(F)=C/c3cccnc3OC)cc2F)c1=O"
  readout_value: 1.53
- chemical_string: "CCn1c(CO)nn(-c2cc(O[C@@H](C)C(F)(F)F)c(/C(F)=C/c3ncccc3Cl)cc2F)c1=O"
  readout_value: 2.02
- chemical_string: "CCn1c(CO)nn(-c2cc(O[C@@H](C)C(F)(F)F)c(/C(F)=C/c3cccnc3C(F)F)cc2F)c1=O"
  readout_value: 2.31

The record that follows has no Vd shown yet.
Would you kindly share the measured Vd for CCn1c(CO)nn(-c2cc(O[C@@H](C)C(F)(F)F)c(/C(F)=C/c3cccnc3Cl)cc2F)c1=O ?
1.93

* * *

Entries and their MRT last values follow.
assay: Pharmacokinetic evaluation in mice (IV and PO); assay type: in vivo, female Balb/c mice; settings: female, Balb/c, mouse, plasma; IV 0.2 mg/kg; read-out: MRT0-last
Please respond with the number in h and leave the unit unwritten.

- chemical_string: "CCn1c(CO)nn(-c2cc(O[C@@H](C)C(F)(F)F)c(/C(F)=C/c3cccnc3C(F)F)cc2F)c1=O"
  readout_value: 7.83
- chemical_string: "CCn1c(CO)nn(-c2cc(O[C@@H](C)C(F)(F)F)c(/C(F)=C/c3cccnc3Cl)cc2F)c1=O"
  readout_value: 8.04
- chemical_string: "CCn1c(CO)nn(-c2cc(O[C@@H](C)C(F)(F)F)c(/C(F)=C/c3ncccc3Cl)cc2F)c1=O"
  readout_value: 6.24

The record that follows has no MRT last shown yet.
Would you kindly share the measured MRT last for CCn1c(CO)nn(-c2cc(O[C@@H](C)C(F)(F)F)c(/C(F)=C/c3cccnc3OC)cc2F)c1=O ?
5.93

* * *

Experiment: Pharmacokinetic evaluation in mice (IV and PO)
Type: in vivo, female Balb/c mice
Details: female, Balb/c, mouse, plasma; IV 0.2 mg/kg
Method: Experiment process: 0.04 mg/mL of a clarified solution of the test compound in 5% DMSO/10% Solutol solution/85% water was injected into female Balb/c mice (overnight fasting, 7-9 weeks of age) via tail vein, with dosage of 0.2 mg/kg. […] Plasma concentrations were detected by LC-MS/MS, and relevant pharmacokinetic parameters were calculated using WinNonlin™ Version 6.3 (Pharsight, Mountain View, CA) pharmacokinetic software with a non-compartmental model linear logarithmic trapezoid method.
Entries and their AUC(0-inf) values follow.
Please respond with the number in µM·h and leave the unit unwritten.

- chemical_string: "CCn1c(CO)nn(-c2cc(O[C@@H](C)C(F)(F)F)c(/C(F)=C/c3ncccc3Cl)cc2F)c1=O"
  measured_metric: "AUC(0-inf)"
  output_unit: "µM·h"
  readout_value: 1.51
- chemical_string: "CCn1c(CO)nn(-c2cc(O[C@@H](C)C(F)(F)F)c(/C(F)=C/c3cccnc3OC)cc2F)c1=O"
  measured_metric: "AUC(0-inf)"
  output_unit: "µM·h"
  readout_value: 2.13
- chemical_string: "CCn1c(CO)nn(-c2cc(O[C@@H](C)C(F)(F)F)c(/C(F)=C/c3cccnc3C(F)F)cc2F)c1=O"
  measured_metric: "AUC(0-inf)"
  output_unit: "µM·h"
  readout_value: 2.24

The record that follows has no AUC(0-inf) shown yet.
Would you kindly share the measured AUC(0-inf) for CCn1c(CO)nn(-c2cc(O[C@@H](C)C(F)(F)F)c(/C(F)=C/c3cccnc3Cl)cc2F)c1=O ?
2.86

* * *

tested on: MDR1 (P-glycoprotein); assay: Permeability evaluation on MDR1-MDCK II cell line; conditions: dog, MDCK-MDR1, pH 7.4
measured_metric: Papp A→B at 150 min, 2 μM

- chemical_string: "CCn1c(CO)nn(-c2cc(O[C@@H](C)C(F)(F)F)c(/C(F)=C/c3cccnc3Cl)cc2F)c1=O"
  readout_value: "8.59 ×10⁻⁶ cm/s"
- chemical_string: "CCn1c(CO)nn(-c2cc(O[C@@H](C)C(F)(F)F)c(/C(F)=C/c3cnccc3Cl)cc2F)c1=O"
  readout_value: "8.65 ×10⁻⁶ cm/s"

Would you kindly share the measured Papp A→B at 150 min, 2 μM for CCn1c(CO)nn(-c2cc(O[C@@H](C)C(F)(F)F)c(/C(F)=C/c3cccnc3OC)cc2F)c1=O ?
3.72 ×10⁻⁶ cm/s

One more compound: CCn1c(CO)nn(-c2cc(O[C@@H](C)C(F)(F)F)c(/C(F)=C/c3ncccc3Cl)cc2F)c1=O
13.3 ×10⁻⁶ cm/s

One more compound: CCn1c(CO)nn(-c2cc(O[C@@H](C)C(F)(F)F)c(/C(F)=C/c3cccnc3C(F)F)cc2F)c1=O
10.1 ×10⁻⁶ cm/s

* * *

Entries and their IC50 values follow.
target: DHODH enzyme (Homo sapiens, UniProt Q02127)
Please respond with the number in nM and leave the unit unwritten.

- molecule: "CCn1c(CO)nn(-c2nc(O[C@@H](C)C(F)(F)F)c(/C=C/c3c(F)cccc3Cl)cc2F)c1=O [Compound 36]"
  target_desc: "DHODH enzyme (Homo sapiens, UniProt Q02127)"
  measured_metric: "IC50"
  readout_value: 1.5

The record that follows has no IC50 shown yet.
Would you kindly share the measured IC50 for CCn1c(CO)nn(-c2cc(O[C@@H](C)C(F)(F)F)c(/C(F)=C/c3cccnc3Cl)cc2F)c1=O [Compound 26] ?
1.5

* * *

Entries and their AUC(0-t) values follow.
test: Pharmacokinetic evaluation in mice (IV and PO); format: in vivo, female Balb/c mice; conditions: female, Balb/c, mouse, plasma; IV 0.2 mg/kg
Please respond with the number in µM·h and leave the unit unwritten.

# example entries with known answers
- chemical_string: "CCn1c(CO)nn(-c2cc(O[C@@H](C)C(F)(F)F)c(/C(F)=C/c3cccnc3C(F)F)cc2F)c1=O"
  readout_value: 1.84
- chemical_string: "CCn1c(CO)nn(-c2cc(O[C@@H](C)C(F)(F)F)c(/C(F)=C/c3ncccc3Cl)cc2F)c1=O"
  readout_value: 1.43
- chemical_string: "CCn1c(CO)nn(-c2cc(O[C@@H](C)C(F)(F)F)c(/C(F)=C/c3cccnc3OC)cc2F)c1=O"
  readout_value: 1.96

Would you kindly share the measured AUC(0-t) for CCn1c(CO)nn(-c2cc(O[C@@H](C)C(F)(F)F)c(/C(F)=C/c3cccnc3Cl)cc2F)c1=O ?
2.29
